Ref: PubChem BioAssay (NCATS)

# Tested on: TAB109
# assay-details: qHTS profiling for inhibitors of Plasmodium falciparum proliferation (AID 504749); also: nearly all actives have a fitted effect of over 60% in size
# study-conditions: P. falciparum in erythrocytes, SYBR Green DNA, 72 h; series mostly up to 12.8 µM
Records with an inconclusive call do not appear. Activity calls are given as the source filed them. Calls follow the shape of the dose curve; as a rule, active = well fitted inhibition curve with a large enough effect; inconclusive = small, poorly fitted or top-dose-only effect; inactive = flat fitted curve, though single readings scatter.
Outcomes: active, inactive

- COc1ccc(C[C@@](C)(N)C(=O)O)cc1OC: inactive
- C[C@H](Oc1ccccc1)C(=O)N[C@@H]1C(=O)N2[C@@H]1SC(C)(C)[C@@H]2C(=O)O: inactive
- CC[C@H]1NC(=O)c2cc(S(N)(=O)=O)c(Cl)cc2N1: inactive
- CO[C@H]1[C@@H](OC(N)=O)[C@H](O)[C@@H](Oc2ccc3c(O)c(NC(=O)c4ccc(O)c(CC=C(C)C)c4)c(=O)oc3c2C)OC1(C)C: inactive
- c1ccc2c(c1)CCC[C@@H]2C1=NCCN1: inactive
- NCC1CCC(N)C(O[C@@H]2C(O)[C@H](O[C@H]3OC(CO)C(O)C(N)C3O)[C@@H](N)C[C@H]2N)O1 (stereo partly drawn): inactive
- CC(C)=CCC[C@](C)(O)C1CC=C(C)CC1 (stereo partly drawn): inactive
- CC(C)C1CCC(C(=O)NC(Cc2ccccc2)C(=O)O)CC1 (stereo not drawn): inactive
- CC(=C(CCOP(=O)(O)O)SC(=O)c1ccccc1)N(C=O)Cc1cnc(C)nc1N: inactive
- COCC(=O)Nc1c(I)c(C(=O)NC[C@@H](O)CO)c(I)c(C(=O)N(C)C[C@@H](O)CO)c1I: inactive
- NC(C(=O)O)[C@@H]1CC(Cl)=NO1 (stereo partly drawn): active
- Cc1ccc(S(=O)(=O)NC(=O)NN2C[C@H]3CCC[C@@H]3C2)cc1: inactive
- CC1(C)S[C@H]2C(NC(=O)[C@@H](N)c3ccc(O)cc3)C(=O)N2[C@@H]1C(=O)O (stereo partly drawn): inactive
- CC(=O)N[C@H](CC(C)C)C(=O)O: inactive
- CC(=O)C[C@H](c1ccc([N+](=O)[O-])cc1)c1c(O)c2ccccc2oc1=O: inactive
- CCN[C@@H]1C[C@H](N)[C@H](O[C@H]2OC(CN)=CC[C@H]2N)[C@@H](O)[C@H]1O[C@H]1OC[C@@](C)(O)[C@@H](NC)[C@@H]1O: inactive
- C[C@@]12CC[C@H]3[C@@H](CCC4=CC(=O)CC[C@]43C)[C@H]1CC[C@H]2C(=O)CO: inactive
- CO[C@]12C(COC(N)=O)C3=C(C(=O)C(C)=C(N)C3=O)N1CC1NC12 (stereo partly drawn): active
- CC(=O)[C@]1(O)CCC2C3C=C(Cl)C4=CC(=O)C5CC5[C@@]4(C)C3CC[C@]21C (stereo partly drawn): inactive
- CO[C@H]1[C@H](O[C@H]2O[C@@H](C)[C@@H](O[C@@H]3C[C@](C)(O)[C@H](OC(=O)CC(C)C)[C@H](C)O3)[C@@H](N(C)C)[C@@H]2O)[C@@H](CC=O)C[C@@H](C)[C@@H](O)/C=C\C=C/C[C@@H](C)OC(=O)C[C@H]1OC(C)=O: active
- COc1ccc(CC(N)C(=O)NC2C(CO)OC(n3cnc4c(N(C)C)ncnc43)C2O)cc1 (stereo not drawn): active
- CCOC(=O)Oc1c(OC)cc(C(=O)O[C@H]2C[C@H]3CN4CCc5c([nH]c6cc(OC)ccc56)[C@@H]4C[C@H]3[C@@H](C(=O)OC)[C@@H]2OC)cc1OC: active
- CC1(C)OC2CO[C@]3(COS(N)(=O)=O)OC(C)(C)OC3C2O1 (stereo partly drawn): inactive
